Tested on: OVCAR-5 ovarian
Assay: NCI-60 one-dose screen, 48 h
Details: 10 µM unless noted
The panel holds about 83,000 compounds, 20% with a hit somewhere; the sample as a whole holds those more often. Active and inactive are the calls of the source. Rule for the calls: active = growth percent below 10; inactive = the rest.
Lab note: assign the record to one of y for active, n for inactive

- molecule: "CS(=O)(=O)Nc1cc(-c2ccc3ncnc(Nc4ccc(F)c(Cl)c4)c3c2)cnc1Cl"
  label_value: "n"
- molecule: "Cc1cc2nc(C(Cl)Cl)nc(-c3ccc(Cl)cc3)n2n1"
  label_value: "y"
- molecule: "Cc1ccc(S(=O)(=O)OC[C@@]2(C)CC[C@]3(C)CC[C@]4(C)C(=CC[C@@H]5[C@@]6(C)CCCNC(C)(C)[C@@H]6CC[C@]54C)[C@@H]3C2)cc1"
  label_value: "y"

Q. Check the results log: what was the call for "Fc1ccccc1-c1cnn2cc(-c3ccccc3)cnc12" ?
A. n

Q. Record lookup: outcome of this test for Nc1nc(N)c2c(n1)NC(c1cccc(Nc3ccnc4cc(C(F)(F)F)ccc34)c1)CC(c1ccc(F)cc1)=N2 (stereo not given) ?
A. n

---

Test system: UACC-62 melanoma
Assay: NCI-60 one-dose screen, 48 h
Conditions: 10 µM unless noted
About 83,000 compounds went through this panel and 20% of them were active in at least one assay; those are over-represented in the sample as a whole. The source made the active and inactive calls. The calls were made as follows: active = growth percent below 10; inactive = the rest.
Returns: one label drawn from TRUE (active), FALSE (inactive)

Illustrative cases are given below, each with its answer.
- smiles_repr: "Cc1c(C(=O)OCCCCOC(=O)c2c(C)n(C)c3scc[n+]23)[n+]2ccsc2n1C"
  label_value: "FALSE"
- smiles_repr: "CON1CCC[C@]2(C)[C@H]3CC[C@@H]4[C@H]5[C@@H](O)C(C)(C)CC[C@]5(CO)CC[C@@]4(C)[C@]3(C)CC[C@H]2C1(C)C"
  label_value: "FALSE"
- smiles_repr: "Cc1ccc(NC(=O)c2sc3nc(C)c(C(=O)c4ccccc4)cc3c2N)cc1"
  label_value: "FALSE"
- smiles_repr: "COC(=O)/C=C1/SC(=Nc2ccc([N+](=O)[O-])cc2)N(CCc2c[nH]c3ccccc23)C1=O"
  label_value: "FALSE"
- smiles_repr: "Cc1n(Cc2ccc3ccccc3c2)c(Cl)c(Cl)[n+]1Cc1ccc2ccccc2c1"
  label_value: "TRUE"
- smiles_repr: "Fc1ccccc1-c1cnn2cc(-c3ccccc3)cnc12"
  label_value: "FALSE"

Q. Would you mind telling me which call this test gave "NC1=CC(=O)c2cccnc2C1=O" ?
A. TRUE

Q. Given "COc1cc(Cl)cc(-c2nn(C(=O)NS(=O)(=O)c3ccc(Cl)cc3)cc2-c2ccncc2)c1" , state the outcome it received in this test.
A. FALSE

Q. Record lookup: outcome of this test for "O=C(N/N=C/c1ccc(O)cc1O)c1cccc(Nc2ccnc(C(F)(F)F)c2)c1" ?
A. TRUE

Q. Check the results log: what was the call for "Cc1ccc(C(=O)N(CCCN)[C@@H](c2nc3cc(Cl)ccc3c(=O)n2Cc2ccccc2)C(C)C)cc1" ?
A. TRUE

Q. Per the records of this test, what outcome belongs to "O=C(c1cccc(Br)c1)N1CCN(c2ccnc3cc(Cl)ccc23)CC1" ?
A. FALSE

Q. Fill in: this test's call for "O=C(/C=C/c1ccc(F)cc1)Nc1ncc(Cc2ccc(F)cc2)s1" is ___
A. FALSE

---

System: HT29 colon
Experiment: NCI-60 one-dose screen, 48 h (100 = growth as untreated, 0 = no growth, -100 = all killed)
Conditions: 10 µM unless noted
About 83,000 compounds went through this panel and 20% of them were active in at least one assay; those are over-represented in the sample as a whole. Activity calls are given as the source filed them. The calls were made as follows: active = growth percent below 10; inactive = the rest.
reported_metric: growth

- smiles_repr: "Cc1nc(-n2[nH]c(=O)ccc2=O)sc1N=Nc1ccccc1"
  recorded_value: "110% (inactive)"
- smiles_repr: "COc1ccc(C/C(C)=C(/c2ccc(OCCN3CCCC3)cc2)c2ccc(OC(=O)NCc3ccccc3)cc2)cc1"
  recorded_value: "18.6% (inactive)"
- smiles_repr: "COc1ccc(Cn2cc(C(=O)Nc3cccnc3Nc3ccccc3)nn2)cc1"
  recorded_value: "106% (inactive)"

The compound "COC(=O)N/N=C/c1c[n+]([O-])c2ccccc2[n+]1[O-]" showed growth equal to 106% (inactive)

response.value for "FC(F)(F)Sc1ccc(/C=C/c2cc(/C=C/c3ccc(SC(F)(F)F)cc3)n(-c3ccccc3)n2)cc1" (field: growth) = 95.3% (inactive)

---

System: OVCAR-3 ovarian
Assay: NCI-60 one-dose screen, 48 h (100 = growth as untreated, 0 = no growth, -100 = all killed)
Conditions: 10 µM unless noted
About 83,000 compounds went through this panel and 20% of them were active in at least one assay; those are over-represented in the sample as a whole.
Range-based classes on measured growth: bottom bin = under 10%, middle bin = from 10% up to 90%, top bin = 90% and over

// below: answered compounds
- compound: "CCCCSc1ccc2nc(-c3ccc(OCCCN=C(N)N)cc3)cn2c1"
  label_value: "middle bin"
- compound: "CC[C@]1(O)CC2CN(CCc3c([nH]c4ccccc34)C(C(=O)OC)(c3cc4c(cc3OC)N(C=O)[C@H]3[C@@](O)(C(=O)OC)[C@H](OC(C)=O)[C@]5(CC)[C@@H]6C[C@@H]6CN6CC[C@]43[C@@H]65)C2)C1 (some centres undefined)"
  label_value: "bottom bin"
- compound: "O=C(CCN1CCOCC1)Nc1cccc(-n2cc(-c3ccncc3)c(-c3ccc(Cl)c(O)c3)n2)c1"
  label_value: "middle bin"
- compound: "Cc1nc2cccc(NCCCCC(=O)NO)c2c(=O)n1-c1ccccc1"
  label_value: "middle bin"
- compound: "Cc1n(Cc2ccc3ccccc3c2)c(Cl)c(Cl)[n+]1Cc1ccc2ccccc2c1"
  label_value: "bottom bin"

Q. // bin(item) where item = "CCN(CC)/C([O-])=c1\cccc\c1=C1\N=C(c2ccccc2)N=C1[n+]1ccc(-c2ccccc2)cc1"
A. top bin

Q. Could you place Nc1nc(Cl)nc2c1ncn2C1OC(CO)C(O)C1O (centres undefined) in its proper category? Many thanks.
A. middle bin

Q. Kindly identify the class of "O=C1/C(=C/c2cn(-c3ccccc3)nc2-c2ccccc2)SC(=S)N1c1ccc(Cl)cc1" .
A. middle bin

Q. For the record "CCN(CC)CCCN1C(=O)c2c(c(C)c3c(oc4cc(OC)ccc43)c2C)C1=O" , report the class its growth corresponds to.
A. top bin

---

Tested on: RPMI-8226 leukemia
Assay: NCI-60 one-dose screen, 48 h (100 = growth as untreated, 0 = no growth, -100 = all killed)
Details: 10 µM unless noted
Compounds without any hit were thinned out: in the full panel of roughly 83,000, 20% have a hit.
reported_metric: growth (%)
The reply should contain only the number, in %.

- compound: "CCCCCO/N=C\\c1c2c(O)c3c(O)c(C)c4c(c3c1O)C(=O)C(C)(O/C=C\\C(OC)C(C)C(OC(C)=O)C(C)C(O)C(C)C(O)C(C)/C=C\\C=C(\\C)C(=O)N2)O4 (centres undefined)"
  growth / %: 13.1
- compound: "Cn1cc(-c2nc3c(F)cc4[nH]ncc4c3c3c2CCCC3)c(C(F)F)n1"
  growth / %: 27.7
- compound: "COc1ccc(/C=N/NC(=O)CN2CCN(c3cc4c(cc3F)c(=O)c(C(=O)O)cn4C3CC3)CC2)cc1O"
  growth / %: 92.3

Consider the record given below.
The compound listed as "CC1(C)C(N)=Nc2cc(OCCCN3Cc4ccc(OCCc5cn(CC(=O)N6CCC(CCN7CCCC7)CC6)nn5)cc4C3)c(OCC3CC3)cc21" has a reported growth of 88.8

---

Test system: SN12C renal
Test: NCI-60 one-dose screen, 48 h
Details: 10 µM unless noted
The panel holds about 83,000 compounds, 20% with a hit somewhere; the sample as a whole holds those more often. Activity calls are given as the source filed them. The calls were made as follows: active = growth percent below 10; inactive = the rest.
Parameter call: string, one of active, inactive

- compound: "COC(=O)c1nc(-c2ccc(C)cc2)oc1Sc1ccc(C)cc1"
  label_value: "inactive"
- compound: "O=C1C(N2CCOCC2)=C(I)C(=O)c2ncccc21"
  label_value: "inactive"
- compound: "COC(=O)N/N=C/c1c[n+]([O-])c2ccccc2[n+]1[O-]"
  label_value: "inactive"
- compound: "CN1CCN(C(=O)OCc2nc3c(N4CCOCC4)nc(Cl)nc3n2C)CC1"
  label_value: "active"
- compound: "Cn1cc(C2=C(c3cccc4ccccc34)C(=O)NC2=O)c2cc(Br)ccc21"
  label_value: "inactive"
- compound: "Clc1cccc(Nc2ncnc3ccc(-c4cncc(-n5cnnn5)c4)cc23)c1"
  label_value: "inactive"

Q. // return assay outcome for "O=C(CCN1CCOCC1)Nc1cccc(-n2cc(-c3ccncc3)c(-c3ccc(Cl)c(O)c3)n2)c1"
A. inactive

Q. Called result for "COc1cc(F)c(/C=C/c2cc(/C=C/c3cc(OC)c(OC)cc3F)n(-c3cc(F)cc(F)c3)n2)cc1OC"
A. inactive

Q. Assay outcome for "CC(=O)c1nn(-c2ccccc2)/c(=N/N=Cc2cn(-c3ccccc3)nc2-c2cc3ccccc3oc2=O)s1" : what was it?
A. inactive

Q. Short answer needed: outcome of this test for "C=C1C(=O)O[C@H]2[C@H]1CC/C(COC(=O)NCCCCNC(=O)OC/C1=C/CC[C@@]3(C)O[C@H]3[C@H]3OC(=O)C(=C)[C@@H]3CC1)=C\CC[C@@]1(C)O[C@@H]21" ?
A. inactive

Q. Per the records of this test, what outcome belongs to "CCOC(=O)c1ccc(Nc2ncnc3c2cnn3-c2cccc(F)c2)cc1" ?
A. inactive

Q. I'd appreciate the recorded outcome for "COCCn1cc(-c2csc(-c3cn(C)c4ccc(F)cc34)n2)c2cccnc21" from this test.
A. inactive

Q. Assay outcome for "CN1CCN(CCNC(=O)c2cccc(CN3c4cccc5c4C(=Cc4cccnc43)N(C)C5=O)c2)CC1" : what was it?
A. inactive

Q. Tell me the recorded outcome of this test for O=C(CN1C(=O)S/C(=C\C(Cl)=C\c2ccccc2)C1=O)NC1C=CS(=O)(=O)C1 (centres undefined) .
A. active

Q. Could you check what this test reported for "COC1=CC(=O)C(OC)=C(O)C1=O" ?
A. inactive

Q. For "COc1ccc(S(=O)(=O)Nc2cc(Sc3cccc4cccnc34)c(O)c3ccccc23)cc1" , what call appears in the results of this test?
A. inactive

Q. Assay outcome for "O=C(c1cccc(Br)c1)N1CCN(c2ccnc3cc(Cl)ccc23)CC1" : what was it?
A. inactive

Q. // param item: CCOC(=O)c1cnn(CC(O)CC)c1NC(=O)NCc1ccccc1C(F)(F)F (centres undefined) ; yields the recorded call
A. inactive

Q. Short answer needed: outcome of this test for "COc1ccc2c(c1)oc1c(C)c3c(c(C)c12)C(=O)N(Nc1ccccc1)C3=O" ?
A. inactive

Q. Returns: the outcome recorded for "COc1cc(/C=N/NC(=O)CCN2c3ccccc3Sc3ccccc32)cc(OC)c1OC" in this assay.
A. inactive

Q. Kindly provide the recorded test outcome for the following compound: "CN(C)C(=O)c1cc2cnc(Nc3ccc(-c4csc5c(=S)cc(N6CCOCC6)oc45)cc3)nc2n1C1CCCC1"
A. active

Q. Record lookup: outcome of this test for "O=c1oc2c(Br)cc(Br)cc2cc1-c1cc(-c2ccc(-c3cc(-c4cc5cc(Br)cc(Br)c5oc4=O)nc(-c4cc5cc(Br)cc(Br)c5oc4=O)c3)cc2)cc(-c2cc3cc(Br)cc(Br)c3oc2=O)n1" ?
A. inactive

Q. What classification did "NC(N)=NC(N)=NCCCc1ccco1" end up with in this test?
A. inactive

Q. Status in this test for "COc1ccc(-c2csc(NC(=O)CN3CCN(CCO)CC3)n2)cc1NS(=O)(=O)c1cccc2c(N(C)C)cccc12" ?
A. inactive
